The following compounds have recorded IC50 on TEAD1(210-426) binding to YAP(50-100) (Homo sapiens, UniProt P28347).
Sequence (P28347 209-426): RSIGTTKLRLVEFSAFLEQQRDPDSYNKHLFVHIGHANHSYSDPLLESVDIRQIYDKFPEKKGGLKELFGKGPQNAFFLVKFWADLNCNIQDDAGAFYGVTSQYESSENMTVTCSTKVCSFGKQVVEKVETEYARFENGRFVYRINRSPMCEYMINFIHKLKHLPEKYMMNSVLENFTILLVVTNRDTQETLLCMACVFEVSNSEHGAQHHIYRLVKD

Lab book: IC50 of CO[C@H]1C[C@@H](Nc2ccnc(Cn3ccc(-c4nn(-c5ccc(C(F)(F)F)cc5)c5ccccc45)cc3=O)n2)C1 noted as 0.1 to 1 µM

Lab book: IC50 of CNc1nccc(Cn2ccc(-c3nn(-c4ccc(OC(F)(F)F)cc4)c4c(F)cccc34)cc2=O)n1 noted as ≤ 0.1 µM

Lab book: IC50 of O=c1cc(-c2nn(-c3ccc(C(F)(F)F)cc3)c3ncccc23)ccn1Cc1nccc(O)n1 noted as ≤ 0.1 µM

Lab book: IC50 of COC(=O)c1ccc2c(-c3ccn([C@@H](C)c4ccccn4)c(=O)c3)nn(-c3ccc(C(F)(F)F)cc3)c2c1 noted as 0.1 to 1 µM

Lab book: IC50 of COc1ccnc(Cn2ccc(-c3nn(-c4ccc(C(F)(F)F)cc4)c4ccccc34)cc2=O)n1 noted as ≤ 0.1 µM

Lab book: IC50 of CNc1ccnc(Cn2ccc(-c3nn(-c4ccc(C(F)(F)F)cc4)c4ccc(F)cc34)cc2=O)n1 noted as ≤ 0.1 µM

Lab book: IC50 of O=c1cc(-c2nn(-c3ccc(C(F)(F)F)cc3)c3ccccc23)ccn1Cc1nccc(N2CCOCC2)n1 noted as ≤ 0.1 µM

Lab book: IC50 of O=c1cc(-c2nn(-c3ccc(C(F)(F)F)cc3)c3ccccc23)ccn1Cc1ccncc1 noted as ≤ 0.1 µM

Lab book: IC50 of O=c1cc(-c2nn(-c3ccc(C(F)(F)F)cc3)c3ccccc23)ccn1C1CCOCC1 noted as > 1 µM

Lab book: IC50 of CNc1ccnc(Cn2ccc(-c3nn(-c4ccc(C(F)(F)F)cc4)c4ccccc34)cc2=O)n1 noted as ≤ 0.1 µM

Lab book: IC50 of COCCN(C)c1nccc(Cn2ccc(-c3nn(-c4ccc(C(F)(F)F)cc4)c4c(F)cccc34)cc2=O)n1 noted as ≤ 0.1 µM

Lab book: IC50 of CNc1cc(Cn2ccc(-c3nn(-c4ccc(C(F)(F)F)cc4)c4ncccc34)cc2=O)ncn1 noted as ≤ 0.1 µM

Lab book: IC50 of CNc1nccc([C@@H](C)n2ccc(-c3nn(-c4ccc(C(F)(F)F)cc4)c4ncccc34)cc2=O)n1 noted as 0.1 to 1 µM

Lab book: IC50 of CNc1ccnc(Cn2ccc(-n3nc(-c4ccc(C(F)(F)F)cc4)c4ncccc43)cc2=O)n1 noted as ≤ 0.1 µM

Lab book: IC50 of CN(CCO)c1ccnc(Cn2ccc(-c3nn(-c4ccc(C(F)(F)F)cc4)c4nccnc34)cc2=O)n1 noted as ≤ 0.1 µM
